# system under test: dopaminergic receptors D2 (Homo sapiens)
# Sequence (P14416 whole entry): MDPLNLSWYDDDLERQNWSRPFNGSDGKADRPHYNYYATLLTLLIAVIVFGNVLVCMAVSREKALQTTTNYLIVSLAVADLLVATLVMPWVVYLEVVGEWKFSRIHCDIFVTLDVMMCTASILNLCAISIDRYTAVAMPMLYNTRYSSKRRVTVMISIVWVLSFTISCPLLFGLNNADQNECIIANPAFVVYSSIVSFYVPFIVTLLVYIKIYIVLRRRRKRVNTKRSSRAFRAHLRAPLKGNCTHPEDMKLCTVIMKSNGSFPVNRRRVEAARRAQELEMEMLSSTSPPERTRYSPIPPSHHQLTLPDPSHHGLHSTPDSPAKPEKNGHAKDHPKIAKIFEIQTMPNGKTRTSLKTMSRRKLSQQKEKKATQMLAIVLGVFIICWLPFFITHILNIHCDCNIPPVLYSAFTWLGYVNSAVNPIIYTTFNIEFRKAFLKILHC
# test method notes: Radioligand binding assay, dopaminergic D2 receptors
# measurement context: binding assay, test compound 1×10^−6 M
outcome measure: inhibition at 1 µM (%)
Form entry: value (%) — number only.

compound | inhibition at 1 µM / %
O=S(=O)(NCC1CN(CCCc2noc3cc(F)ccc23)C1)c1ccc2scnc2c1 [Compound 132] | 82
COc1ccc(S(=O)(=O)NC2CCN(CCCc3noc4cc(F)ccc34)C2)cc1 (stereo not drawn) [Compound 213] | 81

Next item in the queue.
Data request: Request body: readout inhibition at 1 µM, system dopaminergic receptors D2 (Homo sapiens), query O=S(=O)(NC1CCN(CCCc2noc3cc(F)ccc23)CC1)c1ccc(-c2ccccc2)cc1 [Compound 327] . Return the value.
Data returned: 79

----------
Known inhibition at 1 µM of a selection of compounds
# system under test: dopaminergic receptors D3 (Homo sapiens)
# Sequence (P35462 whole entry): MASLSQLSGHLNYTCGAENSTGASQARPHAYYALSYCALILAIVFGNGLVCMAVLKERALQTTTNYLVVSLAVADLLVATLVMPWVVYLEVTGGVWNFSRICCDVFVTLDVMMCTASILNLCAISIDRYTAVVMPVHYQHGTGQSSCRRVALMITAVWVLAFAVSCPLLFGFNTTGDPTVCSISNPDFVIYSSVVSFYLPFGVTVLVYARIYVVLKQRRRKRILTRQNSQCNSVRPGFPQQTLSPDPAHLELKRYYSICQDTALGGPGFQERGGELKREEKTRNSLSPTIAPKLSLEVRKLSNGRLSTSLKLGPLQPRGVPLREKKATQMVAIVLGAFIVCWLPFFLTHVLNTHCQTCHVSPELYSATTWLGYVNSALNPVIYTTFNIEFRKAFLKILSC
# test method notes: Radioligand binding assay, dopaminergic D3 receptors
# measurement context: test compound 1×10^−6 M
Form entry: value (%) — number only.

Completed entries (count: 4):
compound | unit string | inhibition at 1 µM
Cc1cc(S(=O)(=O)NCC2CCN(CCOc3cccc4c3OCCO4)C2)c(C)s1 (stereo not drawn) | % | 36
Cc1c(S(=O)(=O)NC2CCN(CCCc3noc4cc(F)ccc34)C2)sc2ccc(Cl)cc12 (stereo not drawn) | % | 85
O=C1Cc2cc(S(=O)(=O)NCC3CN(CCOc4cccc5c4OCCO5)C3)ccc2N1 | % | 61
Cc1cccc(S(=O)(=O)NC2CCN(CCCc3c[nH]c4ccc(F)cc34)C2)c1 (stereo not drawn) | % | 98

Data request: Form field: reported inhibition at 1 µM of O=S(=O)(NCC1CCN(CCOc2cccc3c2OCCO3)C1)c1ccc(Cl)s1 (stereo not drawn)
Data returned: 36

Data request: Form field: reported inhibition at 1 µM of O=S(=O)(NCC1CCN(CCCc2noc3cc(F)ccc23)C1)c1ccc(F)c(Cl)c1 (stereo not drawn)
Data returned: 71

Data request: Form field: reported inhibition at 1 µM of O=S(=O)(NC1CCN(CCCc2c[nH]c3ccc(Cl)cc23)C1)c1cccc(F)c1 (stereo not drawn)
Data returned: 94

Data request: Form field: reported inhibition at 1 µM of O=S(=O)(NCC1CN(CCCc2noc3cc(F)ccc23)C1)c1ccc2scnc2c1
Data returned: 60

Data request: Form field: reported inhibition at 1 µM of O=S(=O)(NCC1CCN(CCOc2cccc3ccccc23)C1)c1cccc(O)c1 (stereo not drawn)
Data returned: 86

Data request: Form field: reported inhibition at 1 µM of O=S(=O)(N[C@H]1CCN(CCCc2noc3cc(F)ccc23)C1)c1ccc2cc(Cl)ccc2c1
Data returned: 84

----------
# system under test: D3 dopaminergic receptors (Homo sapiens, UniProt P35462)
# test method notes: Cellular functional assay, D3 dopaminergic receptors
# Assay type: cell-based
# measurement context: antagonism, D3 (h), CHO cells, stimulus dopamine (10 nM)
outcome measure: D3 antag [%] (%)
Form entry: value (%) — number only.

Completed entries (count: 2):
molecule | observed result
O=S(=O)(NC1CCN(CCCc2noc3cc(F)ccc23)C1)c1ccc2ccccc2c1 (stereo not drawn) [Compound 21] | 83
O=S(=O)(NC1CCN(CCOc2nsc3ccccc23)C1)c1ccc2ccccc2c1 (stereo not drawn) [Compound 39] | 16

Next item in the queue.
Data request: Form field: reported D3 antag [%] of O=S(=O)(N[C@@H]1CCN(CCCc2noc3cc(F)ccc23)C1)c1cc2ccccc2s1 [Compound 196]
Data returned: 77
